Tested on: HT29 colon
assay_details: NCI-60 one-dose screen, 48 h (100 = growth as untreated, 0 = no growth, -100 = all killed)
condition_parameters: 10 µM unless noted
Compounds without any hit were thinned out: in the full panel of roughly 83,000, 20% have a hit.
Parameter: growth. Scope: all listed entries.
Supply the numeric figure in %, leaving out any unit text.

Data point: Clc1cccc(Cl)c1Nc1ccc2nnc(-c3ccncc3)n2n1 ; growth = 106

Further cases:
The compound Cc1ccc(N(CSc2ccc(Cl)cc2)CSc2ccc(Cl)cc2)cc1 showed growth equal to 74.7

In plain terms, COc1cc(/C=C2\C(=O)N(c3c(Cl)cccc3Cl)c3ccccc32)cc(OC)c1O has a documented growth of 22.6

The measured growth associated with O=C1C2CC3C(CC2C(=O)[N]1[Sn]([c]1ccccc1)([c]1ccccc1)[c]1ccccc1)C1(Cl)C(Cl)=C(Cl)C3(Cl)C1(Cl)Cl (stereo unspecified) reads -87.3

Record CCSc1nnc2c3cc(Br)ccc3n(C)c2n1 , field growth: 104

Data point: CCN(CC)CCCNc1ccc(C)c2sc3ccccc3c(=O)c12 ; growth = -24.2

Kindly note the recorded growth for O=[N+]([O-])c1ccc(C=C2C(Cl)=C(Cl)C(Cl)=C2Cl)cc1 , which is 30.9

Measured growth of COc1cccc(C2C3=C(COC3=O)N(CCO)c3cc4c(cc32)OCO4)c1 (stereo unspecified) : 0.226

Sourced from PubChem BioAssay (NCI)
